Form: system (PI3K gamma (Homo sapiens)), quantity (IC50), values below.
property-measured: IC50 (µM)

COc1ccc(-c2ccc3nc(C)c(-c4ccnc(NCc5ccccc5)n4)n3n2)cc1OC [Example 86] = 8.51

[1] COc1ccc(-c2ccc3nc(C)c(-c4ccn(S(=O)(=O)c5ccc(C#N)cc5)n4)n3n2)cc1OC [Example 21]
[2] COC(=O)NC1(COc2ccc(-c3ccc4nc(C)c(-c5cnc(N)c(C(F)(F)F)c5)n4n3)cc2)COC1 [Example 115]
q: Smaller IC50 value? Options are 1 and 2 Please reply using the label of the selected record.
a: 1
(1: 0.655 µM, 2: 3.16 µM)
